Attribution: paper PMC8568133

Observation type: melting point

> print(dat)
                                   molecule    test.result
1  Cc1nc(-c2ccc(-c3ccccc3)cc2)sc1-c1nnc(N2CC[C@H](N(C)C)C2)o1  185 to 187 °C
2  Cc1nc(-c2ccc(-c3ccccc3)cc2)sc1-c1nnc(N2CCCCC2CN)o1 (centres unmarked)  225 to 227 °C
3  Cc1nc(-c2ccc(-c3ccccc3)cc2)sc1-c1nnc(N[C@H]2CC[C@H](N)CC2)o1  260 to 263 °C
4  Cc1nc(-c2ccc(-c3ccccc3)cc2)sc1-c1nnc(NC2CCNC2)o1 (centres unmarked)  116 to 117 °C
5  Cc1nc(-c2ccc(-c3ccccc3)cc2)sc1-c1nnc(NCCO)o1  210 to 213 °C
6  Cc1nc(-c2ccc(-c3ccccc3)cc2)sc1-c1nnc(NCCN)o1  145 to 146 °C
7  Cc1nc(-c2ccc(-c3ccccc3)cc2)sc1-c1nnc(N[C@@H]2CCCC[C@@H]2N)o1 (relative stereo)  145 to 146 °C
8  Cc1nc(-c2ccc(-c3ccccc3)cc2)sc1-c1nnc(N2CC[C@@H](N(C)C)C2)o1  165 to 167 °C

---

Tested on: MRSA USA300
Experiment: Broth microdilution MIC, initial antibacterial screening
Format: cell-based, S. aureus
Settings: MRSA USA300
Observation type: MIC

> print(dat)
                                   compound  assayed.system  test.result
1  Cc1nc(-c2ccc(-c3ccccc3)cc2)sc1-c1nnc(N2CCC[C@H]2CO)o1 [Compound 20]     MRSA USA300    >64 µg/mL
2  Cc1nc(-c2ccc(-c3ccccc3)cc2)sc1-c1nnc(N[C@@H]2CCCC[C@H]2N)o1 (relative stereo) [Compound 16]     MRSA USA300     64 µg/mL
3  Cc1nc(-c2ccc(-c3ccccc3)cc2)sc1-c1nnc(NCC(=N)N)o1 [Compound 9]     MRSA USA300    >64 µg/mL
4  Cc1nc(-c2ccc(-c3ccccc3)cc2)sc1-c1nnc(N2CCC[C@@H]2C(N)=O)o1 [Compound 14]     MRSA USA300    >64 µg/mL
5  Cc1nc(-c2ccc(-c3ccccc3)cc2)sc1-c1nnc(N2CCC[C@@H]2CO)o1 [Compound 21]     MRSA USA300    >64 µg/mL
6  Cc1nc(-c2ccc(-c3ccccc3)cc2)sc1-c1nnc(NCCN(C)C)o1 [Compound 8]     MRSA USA300     32 µg/mL
7  Cc1nc(-c2ccc(-c3ccccc3)cc2)sc1-c1nnc(N2CCC[C@H]2C(N)=O)o1 [Compound 13]     MRSA USA300    >64 µg/mL

---

Tested on: E. coli JW55031 (tolC-mutant)
Experiment: microbe, parasite or virus in culture
Type: cell-based, Escherichia coli
Settings: E. coli JW55031 (tolC-mutant)
Observation type: MIC

> print(dat)
                                   compound                 assayed.system  observation.type  test.result
1  Cc1nc(-c2ccc(-c3ccccc3)cc2)sc1-c1nnc(N2CCC[C@H]2C(N)=O)o1  E. coli JW55031 (tolC-mutant)               MIC    >64 µg/mL
2  Cc1nc(-c2ccc(-c3ccccc3)cc2)sc1-c1nnc(N[C@@H]2CCCC[C@H]2N)o1 (relative stereo)  E. coli JW55031 (tolC-mutant)               MIC     64 µg/mL
3  Cc1nc(-c2ccc(-c3ccccc3)cc2)sc1-c1nnc(N2CCC[C@@H]2C(N)=O)o1  E. coli JW55031 (tolC-mutant)               MIC    >64 µg/mL
